# Test system: Staphylococcus aureus
# test_protocol: Antibacterial activity evaluated as minimum inhibitory concentration against 3798 Staphylococcus aureus (GISA)
# Format: functional
# Design: unit not given beside the values
assay_endpoint: MIC

| smiles_str | readout_number |
| --- | --- |
| CN[C@H](CC(C)C)C(=O)N[C@H]1C(=O)N[C@@H](CC(N)=O)C(=O)N[C@H]2C(=O)N[C@H]3C(=O)N[C@H](C(=O)N[C@H](C(=O)O)c4cc(O)cc(O)c4-c4cc3ccc4O)[C@H](O[C@H]3C[C@@](C)(N)[C@@H](O)[C@@H](C)O3)c3cccc(c3)Oc3cc2cc(c3O[C@@H]2O[C@@H](CO)[C@H](O)[C@@H](O)[C@@H]2O[C@H]2C[C@@](C)(N)[C@@H](O)[C@@H](C)O2)Oc2ccc(cc2Cl)[C@H]1O | 8 |
| CCCCCCCCCCNC(=O)[C@H]1NC(=O)[C@H]2NC(=O)[C@H](NC(=O)[C@@H]3NC(=O)[C@H](CC(N)=O)NC(=O)[C@H](N)[C@H](O)c4ccc(c(Cl)c4)Oc4cc3cc(c4O[C@@H]3O[C@@H](CO)[C@H](O)[C@@H](O)[C@@H]3O[C@H]3C[C@@](C)(N)[C@@H](O)[C@@H](C)O3)Oc3cccc(c3)[C@H]2O[C@H]2C[C@@](C)(N)[C@@H](O)[C@@H](C)O2)c2ccc(O)c(c2)-c2c(O)cc(O)cc21 | 8 |
| C[C@H]1O[C@@H](O[C@@H]2[C@H](Oc3c4cc5cc3Oc3ccc(cc3Cl)[C@@H](O)[C@@H](N)C(=O)N[C@@H](CC(N)=O)C(=O)N[C@H]5C(=O)N[C@H]3C(=O)N[C@H](C(=O)N[C@H](C(=O)NCc5ccc(-c6ccc(Cl)cc6)cc5)c5cc(O)cc(O)c5-c5cc3ccc5O)[C@H](O[C@H]3C[C@@](C)(N)[C@@H](O)[C@@H](C)O3)c3cccc(c3)O4)O[C@@H](CO)[C@H](O)[C@H]2O)C[C@@](C)(N)[C@H]1O | 8 |
